Where these numbers come from: patent US9926330B2

# System under test: GST tagged IRAK4 (Homo sapiens (Human), UniProt Q9NWZ3)
# Sequence (Q9NWZ3 whole entry): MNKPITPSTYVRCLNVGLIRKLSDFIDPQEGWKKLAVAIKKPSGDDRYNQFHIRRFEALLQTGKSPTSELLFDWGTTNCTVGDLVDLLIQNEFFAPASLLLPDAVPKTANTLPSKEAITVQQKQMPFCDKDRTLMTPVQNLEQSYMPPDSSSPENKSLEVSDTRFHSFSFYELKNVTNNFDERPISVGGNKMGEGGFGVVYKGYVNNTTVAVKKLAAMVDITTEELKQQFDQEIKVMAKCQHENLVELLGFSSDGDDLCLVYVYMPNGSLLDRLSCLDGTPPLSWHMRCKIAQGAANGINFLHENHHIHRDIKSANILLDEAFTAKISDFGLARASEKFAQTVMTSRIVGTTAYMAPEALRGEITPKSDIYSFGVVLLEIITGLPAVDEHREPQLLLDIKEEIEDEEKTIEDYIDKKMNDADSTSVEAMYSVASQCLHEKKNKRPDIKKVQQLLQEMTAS
pIC50: −log10 of the molar value.
Classification field: YES = pIC50 at or over 7; NO = pIC50 under 7.

{"columns": ["Molecule", "System under test", "Assigned label"],
 "data": [
  ["COC/C=C/c1ccc2ncnc(N[C@H]3CC[C@H](N(C)C)CC3)c2c1", "GST tagged IRAK4 (Homo sapiens (Human), UniProt Q9NWZ3)", "YES"]
]}

Next item in the queue.
### Prompt Has Cc1ccc2ncnc(NC3CCC(N4CCCC(C(F)(F)F)C4)CC3)c2c1 (centres unmarked) a recorded pIC50 greater than or equal to 7?
### Response YES

====

Values of IC50 reported for GST tagged IRAK4 (Homo sapiens (Human), UniProt Q9NWZ3) appear below.
I only need the number, in nM, no unit after it.

As a guide, the following entries are already answered.
{"columns": ["Molecule", "Measurement units", "IC50"],
 "data": [
  ["Cc1ccc2ncnc(N[C@H]3CC[C@H](N[C@@H](C)C(C)(C)O)CC3)c2c1", "nM", 123],
  ["CN(C)[C@H]1CC[C@H](Nc2ncnc3ccc(/C=C/C4CC4)cc23)CC1", "nM", 145],
  ["N#CCCCc1ccc2ncnc(N[C@H]3CC[C@H](N4CCOCC4)CC3)c2c1", "nM", 142],
  ["Cc1ccc2ncnc(N[C@H]3CC[C@H](NC4CCOCC4)CC3)c2c1", "nM", 77],
  ["CC(O)CCc1ccc2ncnc(N[C@H]3CC[C@H](N4CCOCC4)CC3)c2c1 (stereo partly drawn)", "nM", 62],
  ["Cc1ccc2ncnc(N[C@H]3CC[C@H](N[C@H]4CCOC(C)(C)C4)CC3)c2c1", "nM", 54],
  ["Cc1ccc2ncnc(NC3CCC(N4CCCCC4C(F)(F)F)CC3)c2c1 (stereo not drawn)", "nM", 1760],
  ["Cc1ccc2ncnc(N[C@H]3CC[C@@H](N4CCNC(=O)C4)CC3)c2c1", "nM", 2200]
]}

Read the next record carefully.
### Prompt What value of IC50 has been reported for the following molecule? "Cc1ccc2ncnc(N[C@H]3CC[C@H](N[C@@H](C)CC(F)(F)F)CC3)c2c1"
### Response 67

====

# System under test: GST tagged IRAK4 (Homo sapiens (Human))
Entries whose IC50 is below 70 nM take Satisfied; entries at or above 70 nM take Not satisfied.

{"columns": ["Molecule", "System under test", "Assigned label"],
 "data": [
  ["Cc1ccc2ncnc(N[C@H]3CC[C@H](NCC4CC4)CC3)c2c1", "GST tagged IRAK4 (Homo sapiens (Human))", "Satisfied"],
  ["Cc1cc2ncnc(N[C@H]3CC[C@H](N(C)C)CC3)c2cc1C", "GST tagged IRAK4 (Homo sapiens (Human))", "Not satisfied"],
  ["Cc1ccc2ncnc(N[C@H]3CC[C@H](NCC4CCOCC4)CC3)c2c1", "GST tagged IRAK4 (Homo sapiens (Human))", "Satisfied"],
  ["CN(C)[C@H]1CC[C@H](Nc2ncnc3ccc(C(F)(F)F)cc23)CC1", "GST tagged IRAK4 (Homo sapiens (Human))", "Satisfied"],
  ["Cc1ccc2ncnc(N[C@H]3CC[C@@H](N4CC(S(C)(=O)=O)C4)CC3)c2c1", "GST tagged IRAK4 (Homo sapiens (Human))", "Not satisfied"]
]}

### Prompt Lab note: IC50 threshold 70 nM. Does this molecule come in strictly under it? "CCCCc1ccc2ncnc(N[C@H]3CC[C@H](N4CCOCC4)CC3)c2c1"
### Response Satisfied

### Prompt Lab note: IC50 threshold 70 nM. Does this molecule come in strictly under it? "Cc1ccc2ncnc(N[C@H]3CC[C@H](N[C@@H](C)CS(C)(=O)=O)CC3)c2c1"
### Response Satisfied

### Prompt Lab note: IC50 threshold 70 nM. Does this molecule come in strictly under it? "Cc1ccc2ncnc(N[C@H]3CC[C@H](N4CC(O)C4)CC3)c2c1"
### Response Not satisfied

### Prompt Lab note: IC50 threshold 70 nM. Does this molecule come in strictly under it? Cc1ccc2ncnc(NC3CCC(N4CCC(C(F)(F)F)CC4)CC3)c2c1 (stereo not drawn)
### Response Not satisfied

### Prompt Lab note: IC50 threshold 70 nM. Does this molecule come in strictly under it? "CN(C)[C@H]1CC[C@H](Nc2ncnc3ccc(CCO)cc23)CC1"
### Response Satisfied

### Prompt Lab note: IC50 threshold 70 nM. Does this molecule come in strictly under it? "OCCCc1ccc2ncnc(N[C@H]3CC[C@H](N4CCOCC4)CC3)c2c1"
### Response Satisfied
